# system-name: T1, Mouse IL-11 (mouse, UniProt P47873 22-199, limits assumed)
# T1 construct: also called murine IL-11; recombinant murine IL-11
# T1 sequence (looked up): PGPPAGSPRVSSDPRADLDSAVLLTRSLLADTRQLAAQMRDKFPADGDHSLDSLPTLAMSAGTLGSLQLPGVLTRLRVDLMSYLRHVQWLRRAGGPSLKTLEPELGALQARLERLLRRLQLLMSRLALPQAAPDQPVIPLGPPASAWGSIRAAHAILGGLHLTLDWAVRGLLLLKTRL
# method-notes: ELISA
// values below are reported mIL11 - average signal
Answer as a number with no unit attached.

binder	mIL11 - average signal
YU100-G10 (antibody) QVQLVQSGGGVVQPGRSLRLSCAASGFTFSSYGMHWVRQAPGKGLEWVAVISYDGSNKYYADSVKGRFTISRDNSKNTLYLQMNSLRAEDTAVYYCAKIGATDPLDYWGQGTLVTVSSGSASAPKLEEGEFSEARVQSALTQPASVSGSLGQSITMSCTGTRRDVGGYDFVSWYQQYPGKAPKLIIYDVSNRPSGVSNRFTGSKSGNTASLTISGLQAEDEADYYCCSYAGTYTWVFGGGTKVTVL	0.404

Q. Dear colleague, I am looking for the recorded mIL11 - average signal of the following binder: YU100-B03 (antibody) QVQLVQSGGGVVQPGRSLRLSCAASGFTFSSYGMHWVRQAPGKGLEWVAVISYDGSNKYYADSVKGRFTISRDNSKNTLYLQMNSLRAEDTAVYYCAKIGATDPLDYWGQGTLVTVSSGSASAPKLEEGEFSEARVQSVLTQPRSVSGSPGRSVTISCTGTSSDVGGYNYVSWYQQHPGKAPKLTLYDVVKRPSGVPDRYSGSKSGNTASLTISGLQAEDEADYYCCSYAGGYTWVFGGGTKVTVV
A. 0.321
